TESTED SYSTEM: Na^+,K^+ -ATPase (Canis lupus familiaris)
Construct: Na^+,K^+ -ATPase receptor purified according to Jorghensen; from tissue
PROCEDURE DETAILS: inhibition of the activity of the purified Na+,K+-ATPase (% hydrolysis of 32P-ATP)
Format: biochemical
pIC50: −log10 of the molar value.
Some compounds, each annotated with its measured pIC50.
METRIC NAME: pIC50

SAMPLE SMILES: CC(/C=N/OCCN)=C\[C@@]1(O)CC[C@]2(O)[C@@H]3CC[C@@H]4C[C@@H](O)CC[C@]4(C)[C@H]3CC[C@]12C
READOUT VALUE: 5.60

SAMPLE SMILES: CC(/C=N/NC1=NCCCN1)=C\[C@H]1CC[C@]2(O)[C@@H]3CC[C@@H]4C[C@@H](O)CC[C@]4(C)[C@H]3CC[C@]12C
READOUT VALUE: 5.60

SAMPLE SMILES: CC(/C=N/OCCN)=C\[C@H]1CC[C@]2(O)[C@@H]3CC[C@@H]4C[C@H](O)CC[C@]4(C)[C@H]3CC[C@]12C
READOUT VALUE: 5.60

SAMPLE SMILES: CC(/C=N/OCCN(C)C)=C\[C@@]1(O)CC[C@]2(O)[C@@H]3CC[C@@H]4C[C@@H](O)CC[C@]4(C)[C@H]3CC[C@]12C
READOUT VALUE: 5.50

SAMPLE SMILES: CC(/C=N/NC(=N)N)=C\[C@@]1(O)CC[C@]2(O)[C@@H]3CC[C@@H]4C[C@@H](O)CC[C@]4(C)[C@H]3CC[C@]12C
READOUT VALUE: 5.40

SAMPLE SMILES: CC(/C=N/OCCN)=C\[C@H]1CC[C@]2(O)[C@@H]3CC[C@@H]4C[C@H](OCCCN)CC[C@]4(C)[C@H]3CC[C@]12C
READOUT VALUE: 5.40

* * *

Recorded log10(IC50), one value per entry.
TESTED SYSTEM: Na^+,K^+ -ATPase (Canis lupus familiaris, UniProt P50997)
Construct: Na^+,K^+ -ATPase receptor purified according to Jorghensen; from tissue
PROCEDURE DETAILS: inhibition of the activity of the purified Na+,K+-ATPase (% hydrolysis of 32P-ATP)
Format: biochemical
STUDY CONDITIONS: purified Na+,K+-ATPase, 32P-ATP hydrolysis; read-out: Inhibitory Activity log IC50 (converted)
METRIC NAME: log10(IC50) (log10 of the value in nM)

COMPOUND: CC(/C=N/NC(=N)N)=C\[C@H]1CC[C@]2(O)[C@@H]3CC[C@@H]4C[C@@H](OCCN)CC[C@]4(C)[C@H]3CC[C@]12C [I-ax]
METRIC NAME: log10(IC50)
READOUT VALUE: 1.60

COMPOUND: CCC(/C=N/OCCN)=C\[C@H]1CC[C@]2(O)[C@@H]3CC[C@@H]4C[C@@H](O)CC[C@]4(C)[C@H]3CC[C@]12C [Comp. I-am]
METRIC NAME: log10(IC50)
READOUT VALUE: 2.10

COMPOUND: CC(/C=N/NC(=N)N)=C\[C@H]1CC[C@]2(O)[C@@H]3CC[C@@H]4C[C@@H](O)CC[C@]4(C)[C@H]3CC[C@]12C [Comp. I-aa]
METRIC NAME: log10(IC50)
READOUT VALUE: 2.40

COMPOUND: CCC(/C=N/OCCCN(C)C)=C\[C@H]1CC[C@]2(O)[C@@H]3CC[C@@H]4C[C@@H](O)CC[C@]4(C)[C@H]3CC[C@]12C [Comp. I-ap]
METRIC NAME: log10(IC50)
READOUT VALUE: 2.80

COMPOUND: CC(/C=N/OCCN(C)C)=C\[C@H]1CC[C@]2(O)[C@@H]3CC[C@@H]4C[C@@H](O)CC[C@]4(C)[C@H]3CC[C@]12C [Comp. I-ah]
METRIC NAME: log10(IC50)
READOUT VALUE: 1.80

COMPOUND: CCC(/C=N/OCCN(C)C)=C\[C@H]1CC[C@]2(O)[C@@H]3CC[C@@H]4C[C@@H](O)CC[C@]4(C)[C@H]3CC[C@]12C [Comp. I-ao]
METRIC NAME: log10(IC50)
READOUT VALUE: 2.70

COMPOUND: CC(/C=N/NC1=NCCN1)=C\[C@H]1CC[C@]2(O)[C@@H]3CC[C@@H]4C[C@@H](O)CC[C@]4(C)[C@H]3CC[C@]12C [Comp. I-ab]
METRIC NAME: log10(IC50)
READOUT VALUE: 3.50

COMPOUND: CC(/C=N/OCCN)=C\[C@H]1CC[C@]2(O)[C@@H]3CC[C@@H]4C[C@@H](O)CC[C@]4(C)[C@H]3CC[C@]12C [Comp. I-af]
METRIC NAME: log10(IC50)
READOUT VALUE: 1.50

COMPOUND: CC(/C=N/OCCN)=C\[C@H]1CC[C@]2(O)[C@@H]3CC[C@@H]4C[C@@H](OCC(C)N5CCCC5)CC[C@]4(C)[C@H]3CC[C@]12C (stereo partly drawn) [Comp. I-aw]
METRIC NAME: log10(IC50)
READOUT VALUE: 1.80

COMPOUND: CC(/C=N/OCCNC(=N)N)=C\[C@H]1CC[C@]2(O)[C@@H]3CC[C@@H]4C[C@@H](O)CC[C@]4(C)[C@H]3CC[C@]12C [Comp. I-aj]
METRIC NAME: log10(IC50)
READOUT VALUE: 2.10

COMPOUND: CC(/C=N/OCCCN(C)C)=C\[C@H]1CC[C@]2(O)[C@@H]3CC[C@@H]4C[C@@H](O)CC[C@]4(C)[C@H]3CC[C@]12C [Comp. I-ai]
METRIC NAME: log10(IC50)
READOUT VALUE: 1.80

COMPOUND: CC(/C=N/OCCCN)=C\[C@H]1CC[C@]2(O)[C@@H]3CC[C@@H]4C[C@@H](O)CC[C@]4(C)[C@H]3CC[C@]12C [Comp. I-ag]
METRIC NAME: log10(IC50)
READOUT VALUE: 1.70

* * *

TESTED SYSTEM: Na^+,K^+ -ATPase (Canis lupus familiaris, UniProt P50997)
Construct: Na^+,K^+ -ATPase receptor purified according to Jorghensen; from tissue
PROCEDURE DETAILS: displacement of the specific 3H-ouabain binding from the purified Na+,K+-ATPase receptor
STUDY CONDITIONS: 3H-ouabain displacement, purified Na+,K+-ATPase; read-out: Binding ^3 H-Ouab. Displacement log IC50 (converted)
Items are presented alongside their recorded log10 IC50.
METRIC NAME: log10 IC50 (log10 of the value in nM)

MOLECULE: CC(/C=N/OCCN)=C\[C@@]1(O)CC[C@]2(O)[C@@H]3CC[C@@H]4C[C@@H](O)CC[C@]4(C)[C@H]3CC[C@]12C
READOUT VALUE: 2.50
//
MOLECULE: CC(/C=N/OCCCNC(=N)N)=C\[C@H]1CC[C@]2(O)[C@@H]3CC[C@@H]4C[C@@H](O)CC[C@]4(C)[C@H]3CC[C@]12C
READOUT VALUE: 1.80
//
MOLECULE: CC(/C=N/OCCCN)=C\[C@H]1CC[C@]2(O)[C@@H]3CC[C@@H]4C[C@@H](O)CC[C@]4(C)[C@H]3CC[C@]12C
READOUT VALUE: 1.40
//
MOLECULE: CC(/C=N/NC(=N)N)=C\[C@H]1CC[C@]2(O)[C@@H]3CC[C@@H]4C[C@@H](OCCCN)CC[C@]4(C)[C@H]3CC[C@]12C
READOUT VALUE: 1.40
//
MOLECULE: CC(/C=N/OCCN)=C\[C@H]1CC[C@]2(O)[C@@H]3CC[C@@H]4C[C@@H](O)CC[C@]4(C)[C@H]3CC[C@]12C
READOUT VALUE: 1.30
//
MOLECULE: CC(/C=N/NC(=N)N)=C\[C@H]1CC[C@]2(O)[C@@H]3CC[C@@H]4C[C@@H](OCCN)CC[C@]4(C)[C@H]3CC[C@]12C
READOUT VALUE: 1.40
//
MOLECULE: CCC(/C=N/OCCN)=C\[C@H]1CC[C@]2(O)[C@@H]3CC[C@@H]4C[C@@H](O)CC[C@]4(C)[C@H]3CC[C@]12C
READOUT VALUE: 1.80
//
MOLECULE: CC(/C=N/OCCN(C)C)=C\[C@H]1CC[C@]2(O)[C@@H]3CC[C@@H]4C[C@@H](O)CC[C@]4(C)[C@H]3CC[C@]12C
READOUT VALUE: 1.30
//
MOLECULE: CC(/C=N/OCCN)=C\[C@H]1CC[C@]2(O)[C@@H]3CC[C@@H]4C[C@@H](OCCN)CC[C@]4(C)[C@H]3CC[C@]12C
READOUT VALUE: 1.40
//
MOLECULE: CC(/C=N/OCCN)=C\[C@H]1CC[C@]2(O)[C@@H]3CC[C@@H]4C[C@@H](OCCN5CCCC5)CC[C@]4(C)[C@H]3CC[C@]12C
READOUT VALUE: 1.30
//
MOLECULE: CC(/C=N/NC(=N)N)=C\[C@H]1CC[C@]2(O)[C@@H]3CC[C@@H]4C[C@@H](O)CC[C@]4(C)[C@H]3CC[C@]12C
READOUT VALUE: 1.50
//
MOLECULE: CC(/C=N/OCCCN(C)C)=C\[C@H]1CC[C@]2(O)[C@@H]3CC[C@@H]4C[C@@H](O)CC[C@]4(C)[C@H]3CC[C@]12C
READOUT VALUE: 1.50
//
MOLECULE: CC(/C=N/NC1=NCCCN1)=C\[C@H]1CC[C@]2(O)[C@@H]3CC[C@@H]4C[C@@H](O)CC[C@]4(C)[C@H]3CC[C@]12C
READOUT VALUE: 1.80
//
MOLECULE: CC(/C=N/OCCN(C)C)=C\[C@@]1(O)CC[C@]2(O)[C@@H]3CC[C@@H]4C[C@@H](O)CC[C@]4(C)[C@H]3CC[C@]12C
READOUT VALUE: 2.60
//
MOLECULE: CC(/C=N/NC1=NCCN1C)=C\[C@H]1CC[C@]2(O)[C@@H]3CC[C@@H]4C[C@@H](O)CC[C@]4(C)[C@H]3CC[C@]12C
READOUT VALUE: 2.50
//
MOLECULE: CC(/C=N/OCCN)=C\[C@H]1CC[C@]2(O)[C@@H]3CC[C@@H]4C[C@@H](OCCCN)CC[C@]4(C)[C@H]3CC[C@]12C
READOUT VALUE: 1.30
//
MOLECULE: CC(/C=N/NC1=NCCN1)=C\[C@H]1CC[C@]2(O)[C@@H]3CC[C@@H]4C[C@@H](O)CC[C@]4(C)[C@H]3CC[C@]12C
READOUT VALUE: 1.80
//
MOLECULE: CC(/C=N/OCCN)=C\[C@H]1CC[C@]2(O)[C@@H]3CC[C@@H]4C[C@@H](OCC(C)N5CCCC5)CC[C@]4(C)[C@H]3CC[C@]12C (stereo partly shown)
READOUT VALUE: 1.40
//
MOLECULE: CC(/C=N/NC(=N)N)=C\[C@@]1(O)CC[C@]2(O)[C@@H]3CC[C@@H]4C[C@@H](O)CC[C@]4(C)[C@H]3CC[C@]12C
READOUT VALUE: 2.60
